B1: Gamma-crystallin C, residues 91 to 170; numbered along this chain, P07315 (parent)
chain: RLYEREDHKGLMMELSEDCPSIQDRFHLSEIRSLHVLEGCWVLYELPNYRGRQYLLRPQEYRRCQDWGAMDAKAGSLRRV

Variants of: B1
Assay: abundance fitness (aPCA) (normalised: wild type 0, dead -1); higher = more abundant; growth selection in yeast, the domain comes from the species named
Applied Conditions: Homo sapiens
Field: abundance fitness. Provide a value for each of the variants that follow.
Please respond with just the number, no unit label.

Reported abundance fitness for S29E was -0.112

Input A69V . Output abundance fitness: -0.818

L77E has a reported abundance fitness of -0.966

Recorded abundance fitness (variant Q59A ): 0.041

Quick note, abundance fitness for R5M landed at 0.047

Please fill in: abundance fitness reported for L28N = -0.697

So for E30S , the logged abundance fitness turned out to be -0.222

Please fill in: abundance fitness reported for E4C = -0.291

Entry S16F , abundance fitness reported as -0.123

Recorded abundance fitness (variant G39T ): -0.892

Notebook: C19L , abundance fitness read as -0.659

Reported abundance fitness of P47D : -0.178

Recorded result, R62V , abundance fitness: -0.365

Looking up P20T , I found its abundance fitness recorded as -0.43

The value of abundance fitness measured for the variant Y54R turned out to be -0.897

The variant listed as E6W has a reported abundance fitness of -0.718

Looking up E6T , I see its abundance fitness listed as -0.362

The variant identified as L11V registered its abundance fitness at -0.059

Entry S21E — recorded abundance fitness = -0.554

Looking up L55D , I see its abundance fitness listed as -0.441

response.value for G39P (field: abundance fitness) = -0.798

Record S33F , field abundance fitness: -0.99
